test method notes: Reaction phenotyping, HLM with UDPGA
test conditions: human, human liver microsomes, pH 7.4
measurement label: remaining at 1 h, 2 µM
Answer format: value, then unit.

[in] # get_value(readout='remaining at 1 h, 2 µM', item= Cc1cc(=O)oc2cc(O)ccc12 [4-methylumbelliferone] )
[out] 0.82%

----------
measured on: CYP2C8 (Homo sapiens, UniProt P10632)
Sequence (P10632 whole entry): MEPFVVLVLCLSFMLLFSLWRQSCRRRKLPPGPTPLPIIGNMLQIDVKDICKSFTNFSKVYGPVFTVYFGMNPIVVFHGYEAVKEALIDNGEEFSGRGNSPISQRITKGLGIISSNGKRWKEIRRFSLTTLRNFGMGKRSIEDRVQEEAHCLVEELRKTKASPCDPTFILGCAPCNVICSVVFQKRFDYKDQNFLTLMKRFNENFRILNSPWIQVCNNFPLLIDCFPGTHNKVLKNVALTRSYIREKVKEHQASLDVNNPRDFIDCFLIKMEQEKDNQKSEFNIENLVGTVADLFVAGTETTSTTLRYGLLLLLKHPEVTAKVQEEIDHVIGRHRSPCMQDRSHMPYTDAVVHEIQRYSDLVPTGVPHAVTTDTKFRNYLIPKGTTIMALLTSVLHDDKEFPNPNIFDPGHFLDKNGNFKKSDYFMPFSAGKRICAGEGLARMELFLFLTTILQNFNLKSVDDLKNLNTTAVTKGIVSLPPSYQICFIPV
measurement label: pIC50
// scale note: pIC50 = -log10(conc_M); give the bare number

[in] Find pIC50 (CYP2C8 (Homo sapiens, UniProt P10632)) for the entry Cc1cc(C)c(Nc2ccnc(Nc3ccc(C#N)cc3)n2)c(C)c1
[out] 5.85

----------
Recorded measurements of IC50, one per entry
Target sequence: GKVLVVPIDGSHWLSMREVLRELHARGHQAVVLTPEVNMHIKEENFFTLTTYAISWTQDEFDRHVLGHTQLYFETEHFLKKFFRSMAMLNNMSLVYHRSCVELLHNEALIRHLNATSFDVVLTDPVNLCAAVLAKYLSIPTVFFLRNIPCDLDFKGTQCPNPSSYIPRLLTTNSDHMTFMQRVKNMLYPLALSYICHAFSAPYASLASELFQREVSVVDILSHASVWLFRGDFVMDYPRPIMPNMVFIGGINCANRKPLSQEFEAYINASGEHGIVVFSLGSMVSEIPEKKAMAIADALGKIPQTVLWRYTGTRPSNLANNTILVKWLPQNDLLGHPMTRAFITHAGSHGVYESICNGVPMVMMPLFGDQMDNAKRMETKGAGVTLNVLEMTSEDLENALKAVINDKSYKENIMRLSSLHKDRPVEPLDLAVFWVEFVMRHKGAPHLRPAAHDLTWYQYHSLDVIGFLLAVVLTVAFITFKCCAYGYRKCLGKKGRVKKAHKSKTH
Supply the numeric figure in µM, leaving out any unit text.

Cc1cc(C)c(Nc2ccnc(Nc3ccc(C#N)cc3)n2)c(C)c1 [DPV, Dapivirine]; 17

Now examine the next entry.
[in] Entry Clc1ccc(COC(Cn2ccnc2)c2ccc(Cl)cc2Cl)c(Cl)c1 (centres unmarked) [MIC, miconazole] has what IC50?
[out] 13.6

----------
measured on: CYP1A1 (Homo sapiens, UniProt P04798)
Sequence (P04798 whole entry): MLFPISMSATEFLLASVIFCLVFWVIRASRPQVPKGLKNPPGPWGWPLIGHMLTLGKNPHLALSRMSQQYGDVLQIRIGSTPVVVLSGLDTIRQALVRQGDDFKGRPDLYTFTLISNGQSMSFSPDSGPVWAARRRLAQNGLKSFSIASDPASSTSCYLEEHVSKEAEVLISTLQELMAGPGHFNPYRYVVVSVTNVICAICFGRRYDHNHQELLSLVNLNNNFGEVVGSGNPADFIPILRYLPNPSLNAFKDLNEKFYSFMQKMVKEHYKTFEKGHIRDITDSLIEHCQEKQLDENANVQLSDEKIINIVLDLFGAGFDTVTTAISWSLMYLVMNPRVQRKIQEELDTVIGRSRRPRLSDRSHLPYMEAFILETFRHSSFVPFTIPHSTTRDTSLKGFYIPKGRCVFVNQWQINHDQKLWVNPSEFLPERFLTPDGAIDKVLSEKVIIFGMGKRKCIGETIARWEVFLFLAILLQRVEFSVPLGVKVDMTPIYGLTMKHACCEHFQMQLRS
test method notes: Enzyme inhibition assay, CYP1A1
test conditions: Recombinant CYP1A1; phenacetin-O-deethylation
Listed next: entries and their corresponding IC50.
Unit nM implied. Number only.

Previously resolved entries follow.
Cc1cc(C)c(Nc2ccnc(Nc3ccc(C#N)cc3)n2)c(C)c1; 500
Cc1nc2c([nH]1)c(=O)n(C)c(=O)n2Cc1ccco1; 4760

Okay, now this compound:
[in] Look up IC50: Clc1ccc(COC(Cn2ccnc2)c2ccc(Cl)cc2Cl)c(Cl)c1 (stereo not drawn)
[out] 430

----------
Target chain: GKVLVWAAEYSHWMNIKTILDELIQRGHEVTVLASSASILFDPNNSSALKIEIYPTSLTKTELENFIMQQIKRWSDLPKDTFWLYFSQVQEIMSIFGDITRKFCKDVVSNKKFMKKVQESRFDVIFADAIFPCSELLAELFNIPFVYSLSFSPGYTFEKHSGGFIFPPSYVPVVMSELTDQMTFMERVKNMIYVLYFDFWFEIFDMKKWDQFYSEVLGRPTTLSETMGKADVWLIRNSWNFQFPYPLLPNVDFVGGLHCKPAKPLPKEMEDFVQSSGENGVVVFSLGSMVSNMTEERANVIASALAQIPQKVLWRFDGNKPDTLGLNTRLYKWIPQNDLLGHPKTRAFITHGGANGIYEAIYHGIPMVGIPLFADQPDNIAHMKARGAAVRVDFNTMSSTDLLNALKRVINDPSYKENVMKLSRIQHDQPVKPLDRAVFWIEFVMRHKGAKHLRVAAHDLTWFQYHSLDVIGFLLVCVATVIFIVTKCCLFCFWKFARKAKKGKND
measurement label: IC50 (µM)
# unit: µM | format: bare number

Cc1cc(C)c(Nc2ccnc(Nc3ccc(C#N)cc3)n2)c(C)c1 [DPV, Dapivirine]; 17.2

Now take the following compound into account.
[in] What does the record list as IC50 for OC(Cn1cncn1)(Cn1cncn1)c1ccc(F)cc1F [Fluconazole] ?
[out] 712

Numbers sourced from paper PMC8706783.
